# study-target: Calcitonin gene-related peptide type 1 receptor (Homo sapiens, UniProt O60894+Q16602)
# Sequence (Q16602 whole entry, one chain of several): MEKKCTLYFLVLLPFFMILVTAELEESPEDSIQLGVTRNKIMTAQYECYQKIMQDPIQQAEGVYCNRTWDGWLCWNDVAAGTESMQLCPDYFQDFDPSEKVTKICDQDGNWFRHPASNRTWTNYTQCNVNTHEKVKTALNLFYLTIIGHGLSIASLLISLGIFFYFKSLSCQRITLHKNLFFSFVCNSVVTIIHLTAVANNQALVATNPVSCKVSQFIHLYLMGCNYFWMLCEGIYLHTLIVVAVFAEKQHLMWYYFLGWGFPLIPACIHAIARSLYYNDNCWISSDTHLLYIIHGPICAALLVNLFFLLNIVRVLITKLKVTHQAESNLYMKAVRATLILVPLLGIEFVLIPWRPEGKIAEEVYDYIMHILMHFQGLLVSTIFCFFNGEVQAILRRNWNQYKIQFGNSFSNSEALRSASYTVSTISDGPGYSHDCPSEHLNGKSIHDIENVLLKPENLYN
# assay-procedure: CGRP1 receptor affinity on human neuroblastoma cells SK-N-MC, which selectively express the human CGRP1 receptor.
pIC50: −log10 of the molar value.
Kindly state pIC50 for each of the entries shown.

// query # return pIC50 for "CC(C)[C@H](NC(=O)[C@@H](CC(N)=O)NC(=O)[C@@H](NC(=O)[C@@H]1CCCN1C(=O)[C@@H](NC(=O)[C@@H](N)Cc1ccc(O)cc1)C(C)C)[C@@H](C)O)C(=O)NCC(=O)N[C@@H](CO)C(=O)N[C@@H](CCC(=O)O)C(=O)N[C@@H](C)C(=O)N[C@@H](Cc1ccccc1)C(=O)O" , test system: Calcitonin gene-related peptide type 1 receptor (Homo sapiens, UniProt O60894+Q16602)
// result < 4.00

// query # return pIC50 for "CC(C)[C@H](NC(=O)[C@H](CC(N)=O)NC(=O)[C@@H](NC(=O)[C@@H]1CCCN1C(=O)[C@@H](NC(=O)[C@@H](N)Cc1ccc(O)cc1)C(C)C)[C@@H](C)O)C(=O)NCC(=O)N[C@H](CO)C(=O)N[C@@H](CCC(=O)O)C(=O)N[C@@H](C)C(=O)N[C@@H](Cc1ccccc1)C(=O)O" , test system: Calcitonin gene-related peptide type 1 receptor (Homo sapiens, UniProt O60894+Q16602)
// result < 4.00

// query # return pIC50 for "CC(C)[C@H](NC(=O)[C@H](CC(N)=O)NC(=O)[C@@H](NC(=O)[C@@H]1CCCN1C(=O)[C@@H](NC(=O)[C@@H](N)Cc1ccc(O)cc1)C(C)C)[C@@H](C)O)C(=O)NCC(=O)N[C@@H](CO)C(=O)N[C@@H](CCC(=O)O)C(=O)N[C@H](C)C(=O)N[C@@H](Cc1ccccc1)C(=O)O" , test system: Calcitonin gene-related peptide type 1 receptor (Homo sapiens, UniProt O60894+Q16602)
// result < 4.00
